Listed here: items and their measured T/C.
- Tested on: P388
- ASSAY_PROCEDURE: Tested on P-388 Leukemia for median survival time treated to median survival time control when administered intraperitoneally at a dose of 2 mg/kg
- Format: functional, Mus musculus
- EXPERIMENTAL_CONDITIONS: route intraperitoneal
Express it in %; write the number only.

Consider the following illustrative entries.
[[record]]
molecule = "COC(C(=O)C(O)C(C)O)C1Cc2cc3cc(OC4CC(OC(C)=O)C(OC5CC(O)C(OC)C(C)O5)C(C)O4)c([N+](=O)[O-])c(O)c3c(O)c2C(=O)C1OC1CC(OC2CC(OC3CC(C)(O)C(OC(=O)C(C)C)C(C)O3)C(O)C(C)O2)C(O)C(C)O1 (centres undefined)"
reported_value = 100

[[record]]
molecule = "COC1C(O)CC(OC2C(C)OC(Oc3cc(O)c4c(O)c5c(cc4c3)CC(C(OC)C(O)C(O)C(C)O)C(OC3CC(OC4CC(OC6CC(C)(O)C(OC(=O)C(C)C)C(C)O6)C(O)C(C)O4)C(O)C(C)O3)C5)CC2OC(C)=O)OC1C (centres undefined)"
reported_value = 100

[[record]]
molecule = "CO/N=C(\\C(O)C(C)O)C(OC)C1Cc2cc3cc(OC4CC(OC(C)=O)C(OC5CC(O)C(OC)C(C)O5)C(C)O4)cc(O)c3c(O)c2C(=O)C1OC1CC(OC2CC(OC3CC(C)(O)C(OC(=O)C(C)C)C(C)O3)C(O)C(C)O2)C(O)C(C)O1 (centres undefined)"
reported_value = 167


// next entry
Answer with the recorded T/C for the molecule listed here: C/N=C(\C(O)C(C)O)C(OC)C1Cc2cc3cc(OC4CC(OC(C)=O)C(OC5CC(O)C(OC)C(C)O5)C(C)O4)cc(O)c3c(O)c2C(=O)C1OC1CC(OC2CC(OC3CC(C)(O)C(OC(=O)C(C)C)C(C)O3)C(O)C(C)O2)C(O)C(C)O1 (centres undefined) 140

----------
- Test system: P388
- ASSAY_PROCEDURE: Tested on P-388 Leukemia for median survival time treated to median survival time control when administered intraperitoneally at a dose of 2 mg/kg
- Format: functional, Mus musculus
- EXPERIMENTAL_CONDITIONS: route intraperitoneal
Catalogue of T/C readings, one per entry.
Give the value in % but do not write % after it.

Give a short answer stating reported T/C for C/N=C(\C(O)C(C)O)C(OC)C1Cc2cc3cc(OC4CC(OC(C)=O)C(OC5CC(O)C(OC)C(C)O5)C(C)O4)cc(O)c3c(O)c2CC1OC1CC(OC2CC(OC3CC(C)(O)C(OC(=O)C(C)C)C(C)O3)C(O)C(C)O2)C(O)C(C)O1 (centres undefined) . 140

Name the recorded T/C of the item COC(C(=O)C1OC2(CCCCC2)OC1C)C1Cc2cc3cc(OC4CC(OC(C)=O)C(OC5CC(O)C(OC)C(C)O5)C(C)O4)cc(O)c3c(O)c2C(=O)C1OC1CC(OC2CC(OC3CC(C)(O)C(OC(=O)C(C)C)C(C)O3)C(O)C(C)O2)C(O)C(C)O1 (centres undefined) in your answer. 111

For the compound COC(/C(=N/O)C(O)C(C)O)C1Cc2cc3cc(OC4CC(OC(C)=O)C(OC5CC(O)C(OC)C(C)O5)C(C)O4)cc(O)c3c(O)c2C(=O)C1OC1CC(OC2CC(OC3CC(C)(O)C(OC(=O)C(C)C)C(C)O3)C(O)C(C)O2)C(O)C(C)O1 (centres undefined) , give its measured T/C value. 155

Return T/C (reported value) for this compound: COc1cc(OC2CC(OC(C)=O)C(OC3CC(O)C(OC)C(C)O3)C(C)O2)cc2cc3c(c(O)c12)C(=O)C(OC1CC(OC2CC(OC4CC(C)(O)C(OC(=O)C(C)C)C(C)O4)C(O)C(C)O2)C(O)C(C)O1)C(C(OC)C(=O)C(O)C(C)O)C3 (centres undefined) 156

State its T/C for this compound: COC(C(=O)C(O)C(C)O)C1Cc2cc3cc(OC4CC(OC(C)=O)C(OC5CC(O)C(OC)C(C)O5)C(C)O4)cc(O)c3c(O)c2C(=O)C1OC1CC(OC2CC(OC3CC(C)(O)C(OC(=O)C(C)C)C(C)O3)C(O)C(C)O2)C(O)C(C)O1 (centres undefined) 146

For the compound COC(/C(=N/Nc1ccccc1)C(O)C(C)O)C1Cc2cc3cc(OC4CC(OC(C)=O)C(OC5CC(O)C(OC)C(C)O5)C(C)O4)cc(O)c3c(O)c2C(=O)C1OC1CC(OC2CC(OC3CC(C)(O)C(OC(=O)C(C)C)C(C)O3)C(O)C(C)O2)C(O)C(C)O1 (centres undefined) , give its reported T/C. 120

----------
Below, each entry is listed with its recorded Activity.
- Test system: Mus musculus
- ASSAY_PROCEDURE: Average change in weight is tested in mice at a dose of 16 mg/kg
- Type: functional
- Set-up: unit not given here
Quick one: just the number, no unit, thanks!

Example entries and their recorded answers appear below.
[[record]]
compound = "COC(C(=O)C(O)C(C)O)C1Cc2cc3cc(OC4CC(OC(C)=O)C(OC5CC(O)C(OC)C(C)O5)C(C)O4)c([N+](=O)[O-])c(O)c3c(O)c2C(=O)C1OC1CC(OC2CC(OC3CC(C)(O)C(OC(=O)C(C)C)C(C)O3)C(O)C(C)O2)C(O)C(C)O1 (stereo not given)"
tested_system = "Mus musculus"
reported_value = 2.4

[[record]]
compound = "COc1cc(OC2CC(OC(C)=O)C(OC3CC(O)C(OC)C(C)O3)C(C)O2)cc2cc3c(c(OC)c12)C(=O)C(OC1CC(OC2CC(OC4CC(C)(O)C(OC(=O)C(C)C)C(C)O4)C(O)C(C)O2)C(O)C(C)O1)C(C(OC)C(=O)C(O)C(C)O)C3 (stereo not given)"
tested_system = "Mus musculus"
reported_value = 0.9

[[record]]
compound = "COC(/C(=N/Nc1ccccc1)C(O)C(C)O)C1Cc2cc3cc(OC4CC(OC(C)=O)C(OC5CC(O)C(OC)C(C)O5)C(C)O4)cc(O)c3c(O)c2C(=O)C1OC1CC(OC2CC(OC3CC(C)(O)C(OC(=O)C(C)C)C(C)O3)C(O)C(C)O2)C(O)C(C)O1 (stereo not given)"
tested_system = "Mus musculus"
reported_value = 1.3

[[record]]
compound = "COC1C(O)CC(OC2C(C)OC(Oc3cc(O)c4c(O)c5c(cc4c3)CC(C(OC)C(O)C(O)C(C)O)C(OC3CC(OC4CC(OC6CC(C)(O)C(OC(=O)C(C)C)C(C)O6)C(O)C(C)O4)C(O)C(C)O3)C5)CC2OC(C)=O)OC1C (stereo not given)"
tested_system = "Mus musculus"
reported_value = 0.5


Query compound follows.
Please report the measured Activity for COC1C(O)CC(OC2C(C)OC(Oc3cc(O)c4c(O)c5c(cc4c3)CC(C(OC)C(O)C(O)C(C)O)C(OC3CC(OC4CC(OC6CC(C)(O)C(OC(=O)C(C)C)C(C)O6)C(O)C(C)O4)C(O)C(C)O3)C5=O)CC2OC(C)=O)OC1C (stereo not given) 0.9

----------
- Tested on: P388
- ASSAY_PROCEDURE: Tested on P-388 Leukemia for median survival time treated to median survival time control when administered intraperitoneally at a dose of 2 mg/kg
- Type: functional, Mus musculus
- EXPERIMENTAL_CONDITIONS: route intraperitoneal
Entries and their measured T/C follow.
# number only, unit % dropped from output

Could you please provide reported T/C for COC(C(=O)C(O)C(C)O)C1Cc2cc3cc(OC4CC(OC(C)=O)C(OC5CC(O)C(OC)C(C)O5)C(C)O4)c(Br)c(O)c3c(O)c2C(=O)C1OC1CC(OC2CC(OC3CC(C)(O)C(OC(=O)C(C)C)C(C)O3)C(O)C(C)O2)C(O)C(C)O1 (stereo not drawn) ? Thanks! 110

Tell us which T/C value is on record for COC1C(O)CC(OC2C(C)OC(Oc3cc(O)c4c(O)c5c(cc4c3)CC(C(OC)C(O)C(O)C(C)O)C(OC3CC(OC4CC(OC6CC(C)(O)C(OC(=O)C(C)C)C(C)O6)C(O)C(C)O4)C(O)C(C)O3)C5=O)CC2OC(C)=O)OC1C (stereo not drawn) 90

Could you please provide reported T/C for COC(C(=O)C(O)C(C)O)C1Cc2cc3cc(OC4CC(OC(C)=O)C(OC5CC(O)C(OC)C(C)O5)C(C)O4)cc(O)c3c(O)c2CC1OC1CC(OC2CC(OC3CC(C)(O)C(OC(=O)C(C)C)C(C)O3)C(O)C(C)O2)C(O)C(C)O1 (stereo not drawn) ? Thanks! 150

----------
- Test system: Mus musculus
- ASSAY_PROCEDURE: Average change in weight is tested in mice at a dose of 2 mg/kg
- Format: functional
- Parameters: unit not given here
The label True is reserved for Activity strictly under 0.3; False covers values equal to or above it.

Below are worked cases with known answers.
[[record]]
molecule = "C/N=C(\\C(O)C(C)O)C(OC)C1Cc2cc3cc(OC4CC(OC(C)=O)C(OC5CC(O)C(OC)C(C)O5)C(C)O4)cc(O)c3c(O)c2CC1OC1CC(OC2CC(OC3CC(C)(O)C(OC(=O)C(C)C)C(C)O3)C(O)C(C)O2)C(O)C(C)O1 (stereo not given)"
tested_system = "Mus musculus"
class_label = "True"

[[record]]
molecule = "COC(/C(=N/NC(N)=O)C(O)C(C)O)C1Cc2cc3cc(OC4CC(OC(C)=O)C(OC5CC(O)C(OC)C(C)O5)C(C)O4)cc(O)c3c(O)c2C(=O)C1OC1CC(OC2CC(OC3CC(C)(O)C(OC(=O)C(C)C)C(C)O3)C(O)C(C)O2)C(O)C(C)O1 (stereo not given)"
tested_system = "Mus musculus"
class_label = "False"

[[record]]
molecule = "COC(C(=O)C1OC2(CCCCC2)OC1C)C1Cc2cc3cc(OC4CC(OC(C)=O)C(OC5CC(O)C(OC)C(C)O5)C(C)O4)cc(O)c3c(O)c2C(=O)C1OC1CC(OC2CC(OC3CC(C)(O)C(OC(=O)C(C)C)C(C)O3)C(O)C(C)O2)C(O)C(C)O1 (stereo not given)"
tested_system = "Mus musculus"
class_label = "False"


Could you now look at the following molecule, please?
Strictly below 0.3: is that where Activity of COC(C(=O)C1OC(C)(C)OC1C)C1Cc2cc3cc(OC4CC(OC(C)=O)C(OC5CC(O)C(OC)C(C)O5)C(C)O4)cc(O)c3c(O)c2C(=O)C1OC1CC(OC2CC(OC3CC(C)(O)C(OC(=O)C(C)C)C(C)O3)C(O)C(C)O2)C(O)C(C)O1 (stereo not given) sits? False
